- study_system: Zap-70 (Homo sapiens, UniProt P43403)
- Construct: Kinases are expressed as either kinase domains or full length constructs; made in house
- Sequence (P43403 whole entry, species assumed, the tested form may be a part): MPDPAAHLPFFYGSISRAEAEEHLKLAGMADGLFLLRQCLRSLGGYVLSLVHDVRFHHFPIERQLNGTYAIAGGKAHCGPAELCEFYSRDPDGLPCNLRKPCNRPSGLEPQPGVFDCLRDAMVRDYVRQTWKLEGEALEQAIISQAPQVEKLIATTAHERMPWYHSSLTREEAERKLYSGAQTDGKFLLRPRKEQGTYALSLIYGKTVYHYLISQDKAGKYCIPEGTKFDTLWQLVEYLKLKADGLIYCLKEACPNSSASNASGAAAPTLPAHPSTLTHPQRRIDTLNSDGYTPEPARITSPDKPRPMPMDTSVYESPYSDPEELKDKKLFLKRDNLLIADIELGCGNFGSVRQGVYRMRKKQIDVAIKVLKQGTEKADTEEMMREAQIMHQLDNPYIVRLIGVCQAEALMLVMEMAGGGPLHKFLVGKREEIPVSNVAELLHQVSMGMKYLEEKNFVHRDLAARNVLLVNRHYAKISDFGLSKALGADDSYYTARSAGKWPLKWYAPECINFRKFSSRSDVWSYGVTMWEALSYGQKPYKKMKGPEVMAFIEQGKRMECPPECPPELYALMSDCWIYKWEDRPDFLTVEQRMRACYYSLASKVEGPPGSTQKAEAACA
- experiment_summary: Kinase inhibition assay (33P transfer), Zap-70
- Assay type: biochemical
- experimental_conditions: Table 3; read-out: Zap-1
pIC50: −log10 of the molar value.
quantity_name: pIC50

Challenge: Param item = NC(=O)c1ccc(Nc2ncnc(-c3cccs3)n2)cc1 [Compound 354] ; retrieve measured pIC50.
Response given: < 4.82

Challenge: Param item = COc1ccc(Nc2ncnc(Nc3ccc(OCc4ccccc4)cc3)n2)cc1OC [Compound 157] ; retrieve measured pIC50.
Response given: 5.09 to 5.25

Challenge: Param item = O=C1OCc2ccc(Nc3ncnc(Nc4cc(-c5ccco5)n[nH]4)n3)cc21 [Compound 364] ; retrieve measured pIC50.
Response given: < 4.92

Challenge: Param item = Clc1cccc(Nc2ncnc(-c3cccs3)n2)c1 [Compound 360] ; retrieve measured pIC50.
Response given: < 4.81

Challenge: Param item = COc1ccc(Nc2ncnc(-c3ccccc3)n2)cc1 [Compound 14] ; retrieve measured pIC50.
Response given: 4.79 to 4.90

====

- study_system: PDGFRB (Homo sapiens)
- Construct: Kinases are expressed as either kinase domains or full length constructs; made in house
- Sequence (P09619 33-1106, species assumed): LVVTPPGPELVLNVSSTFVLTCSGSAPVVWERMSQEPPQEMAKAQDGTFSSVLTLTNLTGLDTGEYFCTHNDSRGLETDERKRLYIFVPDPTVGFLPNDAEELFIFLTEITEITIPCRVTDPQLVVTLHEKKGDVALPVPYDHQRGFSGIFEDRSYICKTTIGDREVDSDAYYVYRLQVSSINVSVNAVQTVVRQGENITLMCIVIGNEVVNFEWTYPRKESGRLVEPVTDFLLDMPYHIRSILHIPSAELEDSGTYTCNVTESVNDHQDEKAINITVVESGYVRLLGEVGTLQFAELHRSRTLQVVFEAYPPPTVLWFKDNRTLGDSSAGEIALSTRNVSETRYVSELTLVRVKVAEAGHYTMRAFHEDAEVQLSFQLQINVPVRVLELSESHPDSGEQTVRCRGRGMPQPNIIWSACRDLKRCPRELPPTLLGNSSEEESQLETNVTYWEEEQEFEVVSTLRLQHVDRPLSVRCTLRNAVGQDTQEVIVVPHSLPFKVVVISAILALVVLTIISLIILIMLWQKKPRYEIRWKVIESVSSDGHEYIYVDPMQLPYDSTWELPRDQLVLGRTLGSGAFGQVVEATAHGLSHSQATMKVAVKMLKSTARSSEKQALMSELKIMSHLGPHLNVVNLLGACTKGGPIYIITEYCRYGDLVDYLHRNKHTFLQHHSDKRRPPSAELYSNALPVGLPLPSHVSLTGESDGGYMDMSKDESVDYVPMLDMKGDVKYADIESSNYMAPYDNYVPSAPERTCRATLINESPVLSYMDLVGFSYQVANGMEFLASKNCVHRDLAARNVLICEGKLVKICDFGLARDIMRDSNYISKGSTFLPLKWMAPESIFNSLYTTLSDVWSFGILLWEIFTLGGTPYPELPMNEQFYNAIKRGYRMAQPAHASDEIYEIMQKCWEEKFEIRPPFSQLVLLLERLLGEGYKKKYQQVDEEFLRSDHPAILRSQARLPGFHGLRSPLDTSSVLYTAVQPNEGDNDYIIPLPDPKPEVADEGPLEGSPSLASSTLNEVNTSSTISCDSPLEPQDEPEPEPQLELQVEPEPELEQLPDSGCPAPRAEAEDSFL
- experiment_summary: Kinase inhibition assay (33P transfer), PDGFRB
- Format: biochemical
- experimental_conditions: read-out: PDGFRB-1
pIC50: −log10 of the molar value.
quantity_name: pIC50

Challenge: Quick check: pIC50 on PDGFRB (Homo sapiens), item COc1cc(Nc2ncnc(-c3cccnc3Nc3ccc(Cl)cc3C)n2)cc(OC)c1OC ?
Response given: > 6.08

Challenge: Quick check: pIC50 on PDGFRB (Homo sapiens), item COC(=O)c1ccc(-c2cc(Nc3ncnc(Nc4cc(=O)n(-c5ccccc5)[nH]4)n3)[nH]n2)cc1 ?
Response given: 5.29 to 6.07

Challenge: Quick check: pIC50 on PDGFRB (Homo sapiens), item COC(=O)c1ccc(-c2cc(Nc3ncnc(Nc4cccc(Cc5nnn[nH]5)c4)n3)[nH]n2)cc1 ?
Response given: 5.29 to 6.07

Challenge: Quick check: pIC50 on PDGFRB (Homo sapiens), item COc1cc(Nc2ncnc(-n3c(Nc4ccc(OC(F)(F)F)cc4)nc4ccccc43)n2)cc(OC)c1OC ?
Response given: 5.36 to 6.14

Challenge: Quick check: pIC50 on PDGFRB (Homo sapiens), item CNS(=O)(=O)Cc1ccc(Nc2ncnc(Nc3ccc4c(cnn4Cc4ccccc4)c3)n2)cc1 ?
Response given: 5.32 to 6.10

Challenge: Quick check: pIC50 on PDGFRB (Homo sapiens), item c1ccc(Cn2ncc3cc(Nc4ncnc(Nc5ccc6ncsc6c5)n4)ccc32)cc1 ?
Response given: 5.27 to 6.05

Challenge: Quick check: pIC50 on PDGFRB (Homo sapiens), item COc1ccc(CNc2ncnc(Nc3cc(-c4ccco4)n[nH]3)n2)cc1 ?
Response given: < 4.91

Challenge: Quick check: pIC50 on PDGFRB (Homo sapiens), item COc1cc(Nc2ncnc(-c3cccnc3N)n2)cc(OC)c1OC ?
Response given: > 5.95

Challenge: Quick check: pIC50 on PDGFRB (Homo sapiens), item COC(=O)c1ccc(-c2cc(Nc3ncnc(Nc4cccc(S(=O)(=O)O)c4)n3)[nH]n2)cc1 ?
Response given: 5.29 to 6.07

Challenge: Quick check: pIC50 on PDGFRB (Homo sapiens), item COc1cc(Nc2ncnc(-c3cccnc3NCc3ccccc3OC(F)(F)F)n2)cc(OC)c1OC ?
Response given: 5.18 to 5.34

Challenge: Quick check: pIC50 on PDGFRB (Homo sapiens), item COc1cc(Nc2ncnc(-n3c(NCc4ccc(O)cc4)nc4ccccc43)n2)cc(OC)c1OC ?
Response given: > 6.10

Challenge: Quick check: pIC50 on PDGFRB (Homo sapiens), item COc1ccc(CNc2nc3ccccc3n2-c2ncnc(Nc3cccc(Cc4nnn[nH]4)c3)n2)cc1 ?
Response given: 5.32 to 6.10

Challenge: Quick check: pIC50 on PDGFRB (Homo sapiens), item CN1CCN(Cc2cccc(Nc3ncnc(Nc4ccc5c(cnn5Cc5ccccc5)c4)n3)c2)CC1 ?
Response given: < 5.05

Challenge: Quick check: pIC50 on PDGFRB (Homo sapiens), item COc1cc(Nc2ncnc(Nc3cc(C(F)(F)F)ccc3F)n2)cc(OC)c1OC ?
Response given: 5.26 to 6.04

Challenge: Quick check: pIC50 on PDGFRB (Homo sapiens), item COc1cccc(Nc2ncnc(Nc3ccc4c(cnn4Cc4ccccc4)c3)n2)c1 ?
Response given: 5.25 to 6.02

Challenge: Quick check: pIC50 on PDGFRB (Homo sapiens), item COC(=O)c1ccc(-c2cc(Nc3ncnc(NCCN4CCNC4=O)n3)[nH]n2)cc1 ?
Response given: < 4.97

Challenge: Quick check: pIC50 on PDGFRB (Homo sapiens), item CN(c1ccccc1)c1ncnc(-n2c(N)nc3ccccc32)n1 ?
Response given: < 4.85

Challenge: Quick check: pIC50 on PDGFRB (Homo sapiens), item COc1cc(Nc2ncnc(N(C)c3cccc(Cl)c3)n2)cc2ccccc12 ?
Response given: < 4.94

Challenge: Quick check: pIC50 on PDGFRB (Homo sapiens), item CN(c1cccc(Cl)c1)c1ncnc(NCCN2CCCCC2)n1 ?
Response given: < 4.89

Challenge: Quick check: pIC50 on PDGFRB (Homo sapiens), item CC1CCc2ccccc2N1c1ncnc(N2c3ccccc3CCC2C)n1 (stereo not shown) ?
Response given: 4.92 to 5.03

Challenge: Quick check: pIC50 on PDGFRB (Homo sapiens), item COC(=O)c1ccc(-c2cc(Nc3ncnc(Nc4cc(Cl)cc(Cl)c4)n3)[nH]n2)cc1 ?
Response given: < 5.01

Challenge: Quick check: pIC50 on PDGFRB (Homo sapiens), item COC(=O)c1ccc(-c2cc(Nc3ncnc(Nc4ccc(N5CCOCC5)cc4)n3)[nH]n2)cc1 ?
Response given: < 5.02

Challenge: Quick check: pIC50 on PDGFRB (Homo sapiens), item CCC(O)CNc1ncnc(Nc2ccc(OC)c(OC)c2)n1 (stereo not shown) ?
Response given: 4.85 to 4.96

Challenge: Quick check: pIC50 on PDGFRB (Homo sapiens), item FC(F)(F)Sc1cccc(Nc2ncnc(Nc3cc(-c4ccco4)[nH]n3)n2)c1 ?
Response given: 5.24 to 6.02

Challenge: Quick check: pIC50 on PDGFRB (Homo sapiens), item COc1ccc(Nc2ncnc(NCCCN3CCCCC3C)n2)cc1OC (stereo not shown) ?
Response given: 5.04 to 5.21

Challenge: Quick check: pIC50 on PDGFRB (Homo sapiens), item COC(=O)Cc1cccc(Nc2ncnc(-n3c(NCc4ccccn4)nc4ccccc43)n2)c1 ?
Response given: < 5.02

Challenge: Quick check: pIC50 on PDGFRB (Homo sapiens), item CCN(CC)c1ccc(Nc2ncnc(N3CCCc4cc(C)ccc43)n2)cc1 ?
Response given: < 4.94

Challenge: Quick check: pIC50 on PDGFRB (Homo sapiens), item CC(C)Nc1ncccc1-c1ncnc(Nc2cccc(CC(=O)O)c2)n1 ?
Response given: > 5.96

Challenge: Quick check: pIC50 on PDGFRB (Homo sapiens), item COc1cc(Nc2ncnc(-c3cccnc3Nc3cccc(C#N)c3)n2)cc(OC)c1OC ?
Response given: < 5.01

Challenge: Quick check: pIC50 on PDGFRB (Homo sapiens), item COc1cc(Nc2ncnc(N(CCO)c3ccccc3)n2)cc(OC)c1OC ?
Response given: 5.06 to 5.22

Challenge: Quick check: pIC50 on PDGFRB (Homo sapiens), item COc1cc(Nc2ncnc(NC(=O)Cc3ccccc3)n2)cc(OC)c1OC ?
Response given: 4.94 to 5.05

Challenge: Quick check: pIC50 on PDGFRB (Homo sapiens), item COC(=O)c1ccc(-c2cc(Nc3ncnc(NC4=NC(=O)CS4)n3)[nH]n2)cc1 ?
Response given: 5.23 to 6.01

Challenge: Quick check: pIC50 on PDGFRB (Homo sapiens), item c1ccc(CNc2ncccc2-c2ncnc(Nc3cccc(Cn4ccnn4)c3)n2)cc1 ?
Response given: > 6.04

Challenge: Quick check: pIC50 on PDGFRB (Homo sapiens), item COC(=O)c1ccc(-c2cc(Nc3ncnc(Nc4cccc5ncccc45)n3)[nH]n2)cc1 ?
Response given: 5.26 to 6.04

Origin of measurements: patent US7074789B2
